- Species: Rattus norvegicus
- PROTOCOL NOTES: Activity at rat GABAA alpha-1-beta-2-gamma-2L receptor expressed in Xenopus laevis assessed as ratio of current in drug-treated to GABA-treated oocyte at 10 uM by electrophysiology
Each entry below carries its recorded Ratio.
Keep the answer to the number alone.

Some molecules with recorded Ratio:
1. C[C@]12CC[C@@H](O)C[C@H]1CC[C@@H]1[C@@H]2CC[C@]2(C)C(=O)CC[C@@H]12 [ETIOCHOLANOLONE] = 0
2. C[C@]12CC[C@@H](O)C[C@H]1CC[C@@H]1[C@@H]2CC[C@@]2(C)[C@H]1CC[C@@]21CO1 = 0.03
3. C[C@]12CC[C@@H](O)C[C@@H]1CC[C@@H]1[C@@H]2CC[C@@]2(C)[C@H]1CC[C@@]21CO1 = 0.22
4. CC(=O)[C@H]1CC[C@H]2[C@@H]3CC[C@H]4C[C@H](O)CC[C@]4(C)[C@H]3CC[C@]12C [BREXANOLONE] = 0.37
5. C[C@]12CC[C@@H](O)C[C@@H]1CC[C@@H]1[C@@H]2CC[C@]2(C)C(=O)CC[C@@H]12 [ANDROSTERONE] = 0.02

Ask | Bench note: what Ratio did C[C@@]12CC[C@H](O)C[C@@H]1CC[C@@H]1[C@@H]2CC[C@]2(C)[C@H]1CC[C@]21CO1 show?
Reply | 0.12
